All values here come from PubChem BioAssay.

Assay: 384-well plate pilot, post-Golgi transport modulator project, inhibition of yeast transport mutant growth (AID 636); further: test concentration not given here
Conditions: absorbance 615 nm, about 18 h, stronger effect = higher value
Catalogue of compounds with associated inhibition
A number alone suffices; assume %.

Below are worked cases with known answers.
Data request: Fill in: inhibition of COc1ccc(-c2ccc(-c3nnn(CC(C)=O)n3)cc2)cc1 is ___
Data returned: -4.16

Data request: Fill in: inhibition of Cn1c(-c2ccccc2)cnc1SCc1nc2ccccc2c(=O)[nH]1 is ___
Data returned: -2.53

Data request: Fill in: inhibition of CCOC(=O)C(C#N)C(c1cccnc1)c1c(C)[nH][nH]c1=O (stereo not drawn) is ___
Data returned: -7.43

Data request: Fill in: inhibition of CN(c1cccc(NC(=O)COc2ccccc2)c1)S(C)(=O)=O is ___
Data returned: 4.47

Data request: Fill in: inhibition of COC(=O)c1[nH]c(C)c(/C(O)=C2\C(=O)C(=O)N(CCCN3CCOCC3)C2c2ccccn2)c1C (stereo not drawn) is ___
Data returned: -0.53

Data request: Fill in: inhibition of c1cc2c(cc1C1CCCN1)OCCCO2 (stereo not drawn) is ___
Data returned: -5.21

Data request: Fill in: inhibition of COc1cccc(NS(=O)(=O)c2ccc3[nH]cc(C(=O)NC4CC4)c(=O)c3c2)c1 is ___
Data returned: -1.04

Data request: Fill in: inhibition of CCOc1cc(C2C(C#N)=C(N)Oc3n[nH]c(CC)c32)ccc1OCCN1CCOCC1 (stereo not drawn) is ___
Data returned: 0.27

Data request: Fill in: inhibition of COc1ccc(-c2ccc(=O)n(Cc3cc(=O)n4ccccc4n3)n2)cc1 is ___
Data returned: -3.38

Data request: Fill in: inhibition of Cc1ccc2nc(NC(=O)C3CCN(S(=O)(=O)c4cccc5nsnc45)CC3)sc2c1 is ___
Data returned: -5.07

Others:
Data request: Fill in: inhibition of COc1ccc(Cl)cc1N1CCN(CCNC(=O)Nc2ccccc2C)CC1 is ___
Data returned: -4.93

Data request: Fill in: inhibition of COc1cccc(S(=O)(=O)Nc2ccc(C(=O)N3CCN(C(=O)c4ccco4)CC3)cc2)c1 is ___
Data returned: -2.19

Data request: Fill in: inhibition of CC1(C)Cc2c(C#N)c(SCCC#N)nc(N3CCOCC3)c2CS1 is ___
Data returned: -3.42

Data request: Fill in: inhibition of O=C(Nc1ccc(N2CCCC2)cc1)c1cccc(F)c1 is ___
Data returned: -0.78

Data request: Fill in: inhibition of CCCCOc1ccccc1NC(=O)c1ccco1 is ___
Data returned: -0.93

Data request: Fill in: inhibition of COc1ccccc1CCNC(=O)C1CCCO1 (stereo not drawn) is ___
Data returned: -6.18

Data request: Fill in: inhibition of CCCCCC(=O)N1CC2(C)CN(C(=O)CCCCC)CC(C)(C1)C2=O is ___
Data returned: 0.9

====

Assay: growth suppression of yeast trafficking mutant, preliminary HTS, modulators of trafficking downstream of Golgi apparatus project, 1536-format plate, OD 615 nm (AID 637); further: test concentration not given here
Details: yeast transport mutant growth, absorbance 615 nm, 18 h; stronger effect = higher value
ASSAY_READOUT: inhibition (%)
A number alone suffices; assume %.

Data request: Fill in: inhibition of CC(=O)CC(=O)Nc1ccccc1NC(C)=O is ___
Data returned: 1.43

Data request: Fill in: inhibition of CCCNC(=O)NS(=O)(=O)c1ccc(Cl)cc1 is ___
Data returned: 0.83

Others:
Data request: Fill in: inhibition of CCN(CC)S(=O)(=O)c1ccc(NC(=O)Cn2cnc3ccccc3c2=O)cc1 is ___
Data returned: -1.29
